Target: UGT1A10 (Homo sapiens)
Sequence (Q9HAW8 26-530): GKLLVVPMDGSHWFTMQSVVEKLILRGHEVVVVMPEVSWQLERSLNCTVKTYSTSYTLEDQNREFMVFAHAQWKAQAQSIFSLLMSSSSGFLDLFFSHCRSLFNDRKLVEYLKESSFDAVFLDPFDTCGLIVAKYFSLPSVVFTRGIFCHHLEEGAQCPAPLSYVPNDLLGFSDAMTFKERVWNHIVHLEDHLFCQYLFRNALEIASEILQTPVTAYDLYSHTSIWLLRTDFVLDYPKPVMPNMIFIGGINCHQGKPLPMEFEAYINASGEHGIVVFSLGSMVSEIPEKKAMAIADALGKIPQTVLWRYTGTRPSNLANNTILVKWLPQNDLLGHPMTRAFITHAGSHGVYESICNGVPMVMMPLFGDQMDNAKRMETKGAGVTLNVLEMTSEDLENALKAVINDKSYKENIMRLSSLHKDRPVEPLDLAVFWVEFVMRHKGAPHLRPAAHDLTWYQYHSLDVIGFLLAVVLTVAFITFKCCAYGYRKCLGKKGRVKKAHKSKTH
Assay: Ki assays / kinetics and inhibition type, UGT1A10 (Example 1)
Details: read-out: Kiapp (UDP-GlcUA), UDP-GlcUA varied, E2
measuredQuantity: Ki (µM)
Express the result in µM but write the number alone.

Inquiry: Give the value of Ki reported for the following: CCCCCCCCCC(=O)NC(COC(=O)NS(=O)(=O)OCC1OC(n2ccc(=O)[nH]c2=O)C(O)C1O)Cc1ccccc1 (stereo not shown) [PP55B]
Reply text: 6.9
